src = PubChem BioAssay

Entries and their measured z-score follow.
ASSAY_DETAILS: budding yeast growth changes without added modifier – OD600, strain BY4716, 24 h, basal condition, primary screen (AID 1173)
MEASUREMENT_CONTEXT: S. cerevisiae BY4716 growth, OD600, 24 h; higher = more signal, called active from +8 up or from −8 down
Calls of active or inactive are those of the source.

ENTRY_SMILES | z-score
NC(=O)NCC#Cc1ccc2c(c1)[C@]1(C(=O)N2)[C@H](c2ccc(OCCO)cc2)N2[C@H](c3ccccc3)[C@H](c3ccccc3)OC(=O)[C@H]2[C@@H]1C(=O)N1CCN(c2ncccn2)CC1 | 1.04 (inactive)
CCCCC(=C=CC[C@H](O)c1cccc(OCCO)c1)C[C@H](O)COCc1ccccc1 | -0.919 (inactive)
COCCOC(=O)N1C(=O)[C@@]2(c3cc(C#Cc4ccc(OC)cc4)ccc31)[C@H](C(N)=O)[C@H]1C(=O)O[C@H](c3ccccc3)[C@H](c3ccccc3)N1[C@@H]2c1ccc(OCCO)cc1 | 1.61 (inactive)
O=C1N(CCS(=O)(=O)c2ccccc2)c2ccccc2[C@H]2OC(c3ccc(OCCCO)cc3)=N[C@@]12CCS(=O)(=O)c1ccccc1 | 2.94 (inactive)
Cc1ccc(S[C@]2(C(=O)NCc3ccccc3)CC(=O)N(C3Cc4ccccc4C3)[C@@H]2c2ccc(CO)cc2I)cc1 | -2.95 (inactive)
COC(=O)[C@@]1(Cc2ccc(OC)cc2)[C@H]2c3cc(C(=O)N(C)C)n(CCF)c3C[C@H]2CN1C(=O)c1ccccc1 | 2 (inactive)

====

Tested on: Human papillomavirus type 1a E7 protein (residues 1-88)
ASSAY_DETAILS: HPV1a E7 small-molecule binders, primary screen, biochemical, small-molecule microarray, residues 1-88, 635 nm (AID 1129)
MEASUREMENT_CONTEXT: small-molecule microarray binding, fluorescence 635 nm; higher = more signal
The reader will find reported composite z-score values listed item by item below.
VALUE_TYPE: composite z-score

COMPOUND | RESULT
COC(=O)C(CC#Cc1ccc2c(c1)[C@]1(C(=O)N2)[C@H](c2ccc(O)cc2)N2[C@H](c3ccccc3)[C@H](c3ccccc3)OC(=O)[C@H]2[C@@H]1C(=O)O)C(=O)OC | 0.56
CC(C)(C)N1CC=CC23O[C@@H]4C=CCCOC(=O)C4[C@H]2C(=O)N(CCCO)[C@@H]3C1=O (some centres undefined) | -1.75
C[C@H]1ON(c2ccccc2)[C@@H](c2ccccc2)[C@@H]1C(=O)N1C(=O)OC[C@@H]1c1ccccc1 | 0.718
CC(C)NC(=O)[C@@]1(Cc2ccccc2I)c2ccccc2C(=O)N(Cc2ccccc2C(F)(F)F)[C@H]1c1ccc(CO)cc1 | 0.906

====

ASSAY_DETAILS: probe aEGFR binding to arrayed compounds – biochemical, biotinylated probe, 635/667 nm fluorescence, primary screen (AID 1097);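 also: probe is a biotinylated anti-EGFR antibody binding compounds printed on slides; score combines fluorescence near 667 nm and signal to noise of each spot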
MEASUREMENT_CONTEXT: small-molecule microarray, higher = more signal
Output Condition met for composite z-score not less than 0.03; output Condition not met otherwise.

ENTRY_SMILES | CLASS_NAME
Cc1ccc(S[C@]2(C(=O)NCCN3CCOCC3)CC(=O)N(C3Cc4ccccc4C3)[C@@H]2c2ccc(CO)cc2)cc1 | Condition not met
CN(C)C(=O)[C@@]1(CCS(=O)(=O)c2ccccc2)N=C(c2ccc(OCCCO)cc2)O[C@H]1c1ccccc1CN=[N+]=[N-] | Condition met
Cc1ccc(S[C@]2(C(=O)O)CC(=O)N(C3CCCCC3)[C@@H]2c2ccc(CO)cc2)cc1 | Condition met
COc1ccc([Si](C)(C)[C@@H]2[C@@H](CCO)O[C@]3(C(=O)N(Cc4ccccc4)c4ccc(N5CCCCC5=O)cc43)[C@H]2C)cc1 | Condition not met
COCC(=C=CC[C@@H](O)c1ccccc1OCCO)C[C@@H](O)COCc1ccccc1 | Condition not met
CC(C)(C)OC(=O)CC[C@@]1(C(=O)N2CCCCC2)N=C(c2ccc(OCCCO)cc2)O[C@@H]1c1ccccc1N=[N+]=[N-] | Condition met
CN(C)CCCNC(=O)[C@@]1(Cc2ccccc2I)c2ccccc2C(=O)N(Cc2ccccc2Cl)[C@H]1c1ccc(CO)cc1 | Condition met
